System: T. interdigitale NCPF0335
Type: cell-based
Where a SMILES comes first, the peptide text is derived from it.
readout type: MIC (mg/L) T. interdigitale NPCF0335

Field: example entries. Status: answers known.
N=C(N)NCCC[C@@H]1NC(=O)[C@H](CCCNC(=N)N)NC(=O)[C@H](CCCNC(=N)N)NC(=O)[C@H](CCCNC(=N)N)NC(=O)[C@H](CCCNC(=N)N)NC(=O)[C@H](CCCNC(=N)N)NC(=O)[C@H](CCCNC(=N)N)NC(=O)[C@H](CCCNC(=N)N)NC(=O)[C@H](CCCNC(=N)N)NC(=O)[C@H](CCCNC(=N)N)NC(=O)[C@H](CCCNC(=N)N)NC(=O)[C@H](CCCNC(=N)N)NC(=O)[C@H](CCCNC(=N)N)NC(=O)[C@H](CCCNC(=N)N)NC(=O)[C@H](CCCNC(=N)N)NC1=O [NP203, cyclic 15R]: 3.9
N=C(N)NCCC[C@@H]1NC(=O)[C@H](CCCNC(=N)N)NC(=O)[C@H](CCCNC(=N)N)NC(=O)[C@H](CCCNC(=N)N)NC(=O)[C@H](CCCNC(=N)N)NC(=O)[C@H](CCCNC(=N)N)NC(=O)[C@H](CCCNC(=N)N)NC(=O)[C@H](CCCNC(=N)N)NC(=O)[C@H](CCCNC(=N)N)NC(=O)[C@H](CCCNC(=N)N)NC(=O)[C@H](CCCNC(=N)N)NC1=O: 15.6

a: N=C(N)NCCC[C@@H]1NC(=O)[C@H](CCCNC(=N)N)NC(=O)[C@H](CCCNC(=N)N)NC(=O)[C@H](CCCNC(=N)N)NC(=O)[C@H](CCCNC(=N)N)NC(=O)[C@H](CCCNC(=N)N)NC(=O)[C@H](CCCNC(=N)N)NC1=O
b: N=C(N)NCCC[C@@H]1NC(=O)[C@H](CCCNC(=N)N)NC(=O)[C@H](CCCNC(=N)N)NC(=O)[C@H](CCCNC(=N)N)NC(=O)[C@H](CCCNC(=N)N)NC1=O [NP201, cyclic-5R] (cyclo(RRRRR))
Asked: Of a and b , whose reported MIC (mg/L) T. interdigitale NPCF0335 is numerically smaller? Write the label of whichever entry you select.
Given back: a
(a: 500 mg/L, b: 1000 mg/L)
